Listed here are compounds together with their documented inhibition of growth at 10 µM.
# System: NCI-H226
# TEST_NAME: Antitumor activity against human NCI-H226 cells assessed as growth inhibition at 10 uM relative to control
# Type: functional
# RECORDED_CONDITIONS: read-out: GI
Value expressed in %; do not type the unit.

Some solved cases for reference:
SMILES_INPUT	QUANTITY	NUMERIC_RESULT
COc1cc(/C=N/Nc2nc(-c3ccc(Cl)cc3)c(C#N)c(N3CCOCC3)n2)cc(OC)c1OC	inhibition of growth at 10 µM	59.1
N#Cc1c(-c2ccc(Cl)cc2)nc(N/N=C/c2ccco2)nc1N1CCOCC1	inhibition of growth at 10 µM	59.4
N#Cc1c(-c2ccc(Cl)cc2)nc(N/N=C2/C(=O)Nc3ccc(Cl)cc32)nc1N1CCOCC1	inhibition of growth at 10 µM	10.5

Query compound follows.
**Q:** Requested field: inhibition of growth at 10 µM. Item: N#Cc1c(-c2ccc(Cl)cc2)nc(N/N=C/c2cccc(Br)c2)nc1N1CCOCC1
**A:** 28.8

* * *

Listed here are compounds together with their documented inhibition of growth at 10 µM.
# System: SK-MEL-5
# TEST_NAME: Antitumor activity against human SK-MEL-5 cells assessed as growth inhibition at 10 uM relative to control
# Type: functional
# RECORDED_CONDITIONS: read-out: GI

Some solved cases for reference:
SMILES_INPUT	inhibition of growth at 10 µM
N#Cc1c(-c2ccc(Cl)cc2)nc(NN2C(=O)CCC2=O)nc1N1CCOCC1	< 1%
N#Cc1c(-c2ccc(Cl)cc2)nc(NN2C(=O)c3ccccc3C2=O)nc1N1CCOCC1	< 1%

**Q:** Requested field: inhibition of growth at 10 µM. Item: N#Cc1c(-c2ccc(Cl)cc2)nc(N/N=C/c2cccc(Br)c2)nc1N1CCOCC1
**A:** 14.4%

* * *

# SYSTEM: Serine/threonine-protein kinase mTOR (Homo sapiens, UniProt P42345)
# TEST_NAME: Inhibition of mTOR (unknown origin) incubated for 1 hr by ELISA analysis
QUANTITY: IC50 (µM)
Value expressed in µM; do not type the unit.

Some solved cases for reference:
MOLECULE	IC50, µM
CO[C@H]1C[C@@H]2CC[C@@H](C)[C@@](O)(O2)C(=O)C(=O)N2CCCC[C@H]2C(=O)O[C@H]([C@H](C)C[C@@H]2CC[C@@H](OCCO)[C@H](OC)C2)CC(=O)[C@H](C)/C=C(\C)[C@@H](O)[C@@H](OC)C(=O)[C@H](C)C[C@H](C)/C=C/C=C/C=C/1C [EVEROLIMUS]	0.53
N#Cc1c(-c2ccc(Cl)cc2)nc(N/N=C/c2cccc(O)c2)nc1N1CCOCC1	2.85

Query molecule follows.
**Q:** Form field - read-out: IC50; system: Serine/threonine-protein kinase mTOR (Homo sapiens, UniProt P42345); submitted item: N#Cc1c(-c2ccc(Cl)cc2)nc(N/N=C/c2cccc(Cl)c2)nc1N1CCOCC1
**A:** 0.83

* * *

Listed here are compounds together with their documented inhibition of growth at 10 µM.
# Test system: SF-268
# TEST_NAME: Antitumor activity against human SF-268 cells assessed as growth inhibition at 10 uM relative to control
# Format: functional
# RECORDED_CONDITIONS: read-out: GI

Some solved cases for reference:
SMILES_INPUT	SYSTEM	inhibition of growth at 10 µM
N#Cc1c(-c2ccc(Cl)cc2)nc(NN)nc1N1CCOCC1	SF-268	< 1%
N#Cc1c(-c2ccc(Cl)cc2)nc(N/N=C/c2cccc(Br)c2)nc1N1CCOCC1	SF-268	10.8%
N#Cc1c(-c2ccc(Cl)cc2)nc(N/N=C/c2ccco2)nc1N1CCOCC1	SF-268	25.5%
N#Cc1c(-c2ccc(Cl)cc2)nc(N/N=C/c2cccc(Cl)c2)nc1N1CCOCC1	SF-268	< 1%
CC1=NN(c2nc(-c3ccc(Cl)cc3)c(C#N)c(N3CCOCC3)n2)C(=O)C1	SF-268	< 1%

Query compound follows.
**Q:** Requested field: inhibition of growth at 10 µM. Item: N#Cc1c(-c2ccc(Cl)cc2)nc(N2NC(=O)CC2=N)nc1N1CCOCC1
**A:** < 1%
